System: A375 melanoma cells
assay: Cell viability by cell counting, trypan blue exclusion method
Type: cell-based
assayContext: Homo sapiens, A-375; 10 μM, 48 h; percentage of cells alive relative to negative control DMSO (100%)
Would you kindly list viability at 10 µM for each of these molecules?
Please respond with the number in % and leave the unit unwritten.

Query: What measured viability at 10 µM goes with COc1ccc(-c2csc(NC(=O)CN3CCN(CCO)CC3)n2)cc1NS(=O)(=O)c1cccc2c(N(C)C)cccc12 [PB602] ?
Result: 1

Query: viability at 10 µM lookup needed for CN1CCN(CC(=O)Nc2nc(-c3cccc(NS(=O)(=O)c4cccc5c(N(C)C)cccc45)c3)cs2)CC1 [PB638] , thanks.
Result: 0

Query: Entry under review: COCCOc1ccc(-c2csc(NC(=O)CN3CCN(CCO)CC3)n2)cc1NS(=O)(=O)c1cccc2c(N(C)C)cccc12 [PB604] . Reported viability at 10 µM?
Result: 16.3

Query: # get_value(readout='viability at 10 µM', item= CN(C)c1cccc2c(S(=O)(=O)Nc3cccc(-c4csc(NC(=O)COCC(O)CO)n4)c3)cccc12 (stereo not shown) [PB605] )
Result: 6.4

Query: Quick check: viability at 10 µM of CN(C)c1cccc2c(S(=O)(=O)Nc3cccc(-c4csc(NC(=O)CN5CCOCC5)n4)c3)cccc12 [PB639] ?
Result: 24

Query: Please look up its viability at 10 µM: CCOP(=O)(NCC(=O)Nc1nc(-c2cccc(NS(=O)(=O)c3cccc4c(N(C)C)cccc34)c2)cs1)OCC [PB649]
Result: 26.4

Query: Quick one: viability at 10 µM of CN(C)c1cccc2c(S(=O)(=O)Nc3cccc(-c4csc(NC(=O)CCCCCNC(=O)OC(C)(C)C)n4)c3)cccc12 [PB624] ?
Result: 33.3

Query: Item CN(C)c1cccc2c(S(=O)(=O)Nc3cccc(-c4csc(NC(=O)CN5CCC(C(N)=O)CC5)n4)c3)cccc12 [PB641] has what recorded viability at 10 µM?
Result: 40

Query: What measured viability at 10 µM goes with CCOC(=O)CCCC(=O)Nc1nc(-c2cccc(NS(=O)(=O)c3cccc4c(N(C)C)cccc34)c2)cs1 [PB625] ?
Result: 36.5

Query: Fill blank: measured viability at 10 µM of the molecule Cc1nc(-c2cccc(NS(=O)(=O)c3cccc4c(N(C)C)cccc34)c2)cs1 [PB635] is ____.
Result: 46.9

Query: Consider the molecule CC(=O)Nc1nc(-c2ccc(F)c(NS(=O)(=O)c3cccc4c(N(C)C)cccc34)c2)cs1 [PB651] and give its measured viability at 10 µM.
Result: 25

Query: Given the molecule CN(C)c1cccc2c(S(=O)(=O)Nc3cccc(-c4csc(NC(=O)CN5CCN(CCO)CC5)n4)c3)cccc12 [PB640] , what is its reported viability at 10 µM?
Result: 0

Query: GET /values?readout=viability at 10 µM&item= CN(C)c1cccc2c(S(=O)(=O)Nc3cccc(-c4csc(NC(=O)CNCCO)n4)c3)cccc12 [PB643]
Result: 0

---

assay: Pharmacokinetics in mice (half-life, AUC IV, AUC PO)
Format: in vivo
assayContext: mouse, in vivo, 1 mg/kg, head prints both IV and PO administration 1 mpk, read-out: T½ IV (min) (PO administration 1 mpk)
quantity: half-life (min)
# number only, unit min dropped from output

Query: I am curious: what half-life value has been reported for CCCCCc1ccc(S(=O)(=O)Nc2cccc(-c3csc(NC(=O)CN4CCN(C)CC4)n3)c2)cc1 [PB688] ?
Result: 76

Query: half-life; subject: CCCCCc1ccc(S(=O)(=O)Nc2cc(-c3csc(NC(=O)CN4CCN(C)CC4)n3)ccc2OC)cc1 [PB691]
Result: 77

Query: GET /values?readout=half-life&item= CCCCCc1ccc(S(=O)(=O)Nc2cc(-c3csc(NC(=O)CN4CCN(C)CC4)n3)ccc2N2CCN(C)CC2)cc1 [PB696]
Result: 312

Query: Using the record for CCCCCc1ccc(S(=O)(=O)Nc2cccc(-c3csc(NC(=O)CN4CCN(CCO)CC4)n3)c2)cc1 [PB689] , report its half-life.
Result: 110

---

assay: Aqueous solubility
Type: physicochemical
assayContext: aqueous medium (not further specified), read-out: Solublity
quantity: solubility (µM)
State the answer as a number, implicitly in µM.

Query: Which solubility value belongs to COc1ccc(-c2csc(NC(=O)CN3CCN(CCO)CC3)n2)cc1NS(=O)(=O)c1cccc2c(N(C)C)cccc12 ?
Result: 3.4

Query: Using the record for COCCOc1ccc(-c2csc(NC(=O)CN3CCN(CCO)CC3)n2)cc1NS(=O)(=O)c1cccc2c(N(C)C)cccc12 , report its solubility.
Result: 4.1

Query: What does the data say about its solubility? Entry: CN(C)c1cccc2c(S(=O)(=O)Nc3cccc(-c4csc(NC(=O)CNCCO)n4)c3)cccc12
Result: 3

Query: Need solubility of CN(C)c1cccc2c(S(=O)(=O)Nc3cccc(-c4csc(NC(=O)CNCCS(=O)(=O)O)n4)c3)cccc12 , thanks.
Result: 88

Query: Using the record for CN(C)c1cccc2c(S(=O)(=O)Nc3cccc(-c4csc(NC(=O)CN5CCN(CCO)CC5)n4)c3)cccc12 , report its solubility.
Result: 4.2

Query: Entry under review: CN(C)c1cccc2c(S(=O)(=O)Nc3cccc(-c4csc(NC(=O)COCC(O)CO)n4)c3)cccc12 (stereo not shown) . Reported solubility?
Result: 2.8

Query: Given CCCCCc1ccc(S(=O)(=O)Nc2cc(-c3csc(NC(=O)CN4CCN(C)CC4)n3)ccc2N2CCN(C)CC2)cc1 , state its recorded solubility.
Result: 49

Query: Item under review: CN(C)c1cccc2c(S(=O)(=O)Nc3cc(-c4csc(NC(=O)CN5CCN(CCO)CC5)n4)ccc3F)cccc12 . Reported solubility?
Result: 5.2

Query: Quick one: solubility of CCCCCc1ccc(S(=O)(=O)Nc2cccc(-c3csc(NC(=O)CN4CCN(C)CC4)n3)c2)cc1 ?
Result: 17

Query: Given the entry CN1CCN(CC(=O)Nc2nc(-c3cccc(NS(=O)(=O)c4cccc5c(N(C)C)cccc45)c3)cs2)CC1 , report its measured solubility.
Result: 4

---

Test system: CHOP in SH10TC cells
assay: CHOP induction (ER stress marker), western blot, SH10TC
Assay type: cell-based, human
Parameters: key: −: No induction of CHOP; +: Induction of CHOP; ++: Significant induction of CHOP; +++: Strong induction of CHOP
assayContext: SH10TC (serum free), 24 or 48 h
quantity: Induction of CHOP in comparison to control condition, SH10TC

The examples below pair each entry with its known result.
CCCCCc1ccc(S(=O)(=O)Nc2cccc(-c3csc(NC(=O)CNCCN(C)C)n3)c2)cc1    −
CCCCCc1ccc(S(=O)(=O)Nc2cc(-c3csc(NC(=O)CN4CCN(C)CC4)n3)ccc2N2CCN(C)CC2)cc1    ++
CCCCCc1ccc(S(=O)(=O)Nc2cc(-c3csc(NC(=O)CN4CCN(C)CC4)n3)ccc2OC)cc1    −
CCCCCc1ccc(S(=O)(=O)Nc2cccc(-c3csc(NC(=O)CCCCCN4CCN(CCO)CC4)n3)c2)cc1    ++
CCCCCc1ccc(S(=O)(=O)Nc2cccc(-c3csc(NC(=O)CN4CCN(C)CC4)n3)c2)cc1    ++

Then there is this compound:
Query: Looking for the measured Induction of CHOP in comparison to control condition, SH10TC of CCCCCc1ccc(S(=O)(=O)Nc2cccc(-c3csc(NC(=O)CN4CCN(CCO)CC4)n3)c2)cc1 , can you help?
Result: +++

---

Test system: A375 melanoma cells
assay: Cell viability by cell counting, trypan blue exclusion method
Format: cell-based
assayContext: Homo sapiens, A-375; 10 μM, 48 h; percentage of cells alive relative to negative control DMSO (100%)
quantity: viability at 10 µM (%)
// units = %; emit number, no label

Query: Report viability at 10 µM for CN(C)c1cccc2c(S(=O)(=O)Nc3cc(-c4csc(NC(=O)CN5CCN(CCO)CC5)n4)ccc3F)cccc12 please.
Result: 10.2

Query: What does the data say about its viability at 10 µM? Entry: CN(C)c1cccc2c(S(=O)(=O)Nc3cccc(-c4csc(NC(=O)CNCCS(=O)(=O)O)n4)c3)cccc12
Result: 70

Query: Bench note: what viability at 10 µM did COc1ccc(-c2csc(NC(C)=O)n2)cc1NS(=O)(=O)c1cccc2c(N(C)C)cccc12 show?
Result: 48.8

Query: Query (compound): CN(C)c1cccc2c(S(=O)(=O)Nc3cccc(-c4csc(NC(=O)CCCNC(=O)OC(C)(C)C)n4)c3)cccc12 ; field requested: viability at 10 µM
Result: 35.4

Query: Sample CN(C)c1cccc2c(S(=O)(=O)Nc3cccc(-c4csc(NC(=O)CNCCCN5CCOCC5)n4)c3)cccc12 — what was its viability at 10 µM?
Result: 8

Query: Request the reported viability at 10 µM associated with COCCOc1ccc(-c2csc(NC(C)=O)n2)cc1NS(=O)(=O)c1cccc2c(N(C)C)cccc12
Result: 43.1

Query: State the recorded viability at 10 µM for this entry: CC(=O)NCCCC(=O)Nc1nc(-c2cccc(NS(=O)(=O)c3cccc4c(N(C)C)cccc34)c2)cs1
Result: 43.8
